The measurements presented in this section are drawn from patent US8124793B2.

- Test system: MALME-3M
- Measurement Protocol: NCI screen, growth of human tumor cells: Melanoma MALME-3M
- Format: cell-based
- Reported Conditions: MALME-3M, 10^−4 molar
Experimental Readout: % Growth (%)
Answer in %, number only, no unit symbol.

Example cases with answers are listed next.
[
  {
    "Compound": "CC1=C(CC2(S(=O)(=O)C(F)(F)F)S(=O)(=O)OCCOS2(=O)=O)C(=O)c2ccccc2C1=O [NSC 720682]",
    "% Growth [%]": "−89"
  },
  {
    "Compound": "O=S1(=O)OCCOS(=O)(=O)C1(I)I [NSC 648308, ethylene diiodomethanedisulfonate]",
    "% Growth [%]": "−80"
  },
  {
    "Compound": "COC(=O)c1cc(/C=C/C(=O)Cc2ccccc2)cn1S(=O)(=O)c1ccccc1 [compound 679534]",
    "% Growth [%]": "−88"
  }
]

Problem: // % Growth lookup, key: CC1=C(CC2S(=O)(=O)OCCOS2(=O)=O)C(=O)c2ccccc2C1=O [NSC 693874]
Solution: −78

Problem: // % Growth lookup, key: CC1=C(CC2(C(=O)C(F)(F)C(F)(F)C(F)(F)F)S(=O)(=O)OCCOS2(=O)=O)C(=O)c2ccccc2C1=O [NSC 720683]
Solution: −87

Problem: // % Growth lookup, key: CC(=O)C1(CC2=C(C)C(=O)c3ccccc3C2=O)S(=O)(=O)OCCOS1(=O)=O [NSC 701690]
Solution: −100

Problem: // % Growth lookup, key: Cc1ccc2ccccc2c1CC1S(=O)(=O)OCCOS1(=O)=O [NSC 679043]
Solution: −88

----------
Overview of reported percent of growth of human tumor cells across a group of compounds:
- System: MOLT-4
- Measurement Protocol: NCI screen, growth of human tumor cells: Leukemia MOLT-4
- Type: cell-based
- Reported Conditions: MOLT-4 (Leukemia), 10^−4 molar
Answer in %, number only, no unit symbol.

[
  {
    "Compound": "CC1S(=O)(=O)OCCOS1(=O)=O",
    "Units Label": "%",
    "Recorded Value": 12
  },
  {
    "Compound": "CC1=C(CC2S(=O)(=O)OCCOS2(=O)=O)C(=O)c2ccccc2C1=O",
    "Units Label": "%",
    "Recorded Value": "−51"
  }
]

The record that follows has no percent of growth of human tumor cells shown yet.
Problem: // percent of growth of human tumor cells lookup, key: CCOCC1(COCC)S(=O)(=O)OCCOS1(=O)=O
Solution: 23

----------
- System: U-251
- Measurement Protocol: NCI screen, growth of human tumor cells: CNS Cancer U-251
- Format: cell-based
- Reported Conditions: U251, 10^−4 molar
Experimental Readout: % Growth (%)
Answer in %, number only, no unit symbol.

[
  {
    "Substance Smiles": "Cc1ccc2ccccc2c1CC1S(=O)(=O)OCCOS1(=O)=O",
    "% Growth, %": "−96"
  }
]

Problem: // % Growth lookup, key: CC(=O)C1(CC2=C(C)C(=O)c3ccccc3C2=O)S(=O)(=O)OCCOS1(=O)=O
Solution: −100

Problem: // % Growth lookup, key: CC=CC(=O)C1(Cc2ccc3c(c2)C(=O)c2ccccc2C3=O)S(=O)(=O)OCCOS1(=O)=O
Solution: −85

Problem: // % Growth lookup, key: CC1=C(CC2S(=O)(=O)OCCOS2(=O)=O)C(=O)c2ccccc2C1=O
Solution: −25
